All values here come from the supplement of paper PMC6992640.

test system: UCD52 (cells of a triple-negative basal-like breast cancer xenograft); experiment: cell viability (% of vehicle); higher = less cytotoxic; settings: 10 µM; 72 h;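 also: PDX cells carrying CMV promoter-driven luciferase, viability read as total photon flux per second by IVIS imaging following D-luciferin, vehicle control 0.1% DMSO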
Class assignment keyed on cell viability, ranges lo: < 90; med: ≥ 90 and < 100; hi: ≥ 100

Worked examples, 6 compounds total:
In [3]: df
Out[3]:
                                   compound  class
0          CCc1cc(C(N)=S)ccn1 [Ethionamide]     lo
1  COS(=O)(=O)[O-].C[N+]1(C)CCC(=C(c2ccccc2)c2ccccc2)CC1 [Diphemanil Methylsulfate]    med
2  CCCS(=O)(=O)Nc1ccc(F)c(C(=O)c2c[nH]c3ncc(-c4ccc(Cl)cc4)cc23)c1F     hi
3  NC(=O)N1c2ccccc2C=Cc2ccccc21 [Carbamazepine]     lo
4  CC(C)NCC(O)c1ccc(NS(C)(=O)=O)cc1.Cl (configuration not stated) [Sotalol]     lo
5  CC1C(NC(=O)C(=NOC(C)(C)C(=O)O)c2csc(N)n2)C(=O)N1S(=O)(=O)O (configuration not stated)    med

Attention now turns to another entry.
Exam item: assign Nc1ccn(C2CCC(CO)O2)c(=O)n1 (configuration not stated) to the correct category.
hi
